B1: BTBD10 (parent)
chain: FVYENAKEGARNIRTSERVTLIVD

Variants of: B1
Test Name: protein stability index of a GFP-peptide fusion (GPS, HEK-293T) (PSI 1-6); higher = more stable;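 note: lentivirally expressed fusions sorted by FACS into six bins by GFP to DsRed ratio, PSI derived from sequencing read proportions per bin multiplied by bin number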
Measurement Context: c terminus: a fixed tail appended

Variant Designation	protein stability index
S16C	2.02
R14G	1.99
E8W	2.04
E4I	2.35
I22H	2.2
A10M	1.62
Y3V	2.22
Y3R	2.73
Y3L	1.92
I13L	2.5
L21A	2.34
I13T	2.4
I13C	1.8
T20L	1.48
S16D	2.33
T15M	1.97
L21R	2.14
T20I	1.84
R14L	1.55
E8D	2.28
V2M	2.6
N5V	1.63
A6D	2.67
V2C	2.33
T20N	2.56
N5L	1.34
V19G	2.21
D24P	2.06
V23M	2.04
T20W	3.5
I13S	2.44
R14P	1.85
A10K	2.32
